B1: E3 ubiquitin-protein ligase NEDD4-like, residues 539 to 589; numbered along this chain, Q96PU5 (parent)
chain: KTSLNPNDLGPLPPGWEERIHLDGRTFYIDHNSKITQWEDPRLQNPAITGP

variants of: B1; test: abundance fitness (aPCA) (normalised: wild type 0, dead -1); higher = more abundant; growth selection in yeast, the domain comes from the species named; details: Homo sapiens
The following variants are shown together with reported abundance fitness values.

>  <MUTATION>
L12R

>  <abundance fitness>
-0.864

$$$$
>  <MUTATION>
D40M

>  <abundance fitness>
-0.639

$$$$
>  <MUTATION>
P41I

>  <abundance fitness>
-1.28

$$$$

Ask | Specify abundance fitness for R19Y and stop.
Reply | -0.216

Ask | Specify abundance fitness for R19G and stop.
Reply | -0.175

Ask | Specify abundance fitness for P14E and stop.
Reply | 0.009

Ask | Specify abundance fitness for P6E and stop.
Reply | 0.057

Ask | Specify abundance fitness for G50K and stop.
Reply | 0.305

Ask | Specify abundance fitness for D40S and stop.
Reply | -0.492

Ask | Specify abundance fitness for R42D and stop.
Reply | -1.15

Ask | Specify abundance fitness for Q37H and stop.
Reply | 0.068

Ask | Specify abundance fitness for T26A and stop.
Reply | -0.065
